// cell viability lookup, one value per entry
- Test system: MARIMO
- TEST_DETAILS: cell viability relative to vehicle control; higher = less cytotoxic;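 further: after 48 h exposure read by CellTiter-Glo luminescence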
- CONDITION_INFO: 10 µM; SRSF2 genotype: SRSF2 P95H/wt
Include the unit after the number when you answer.

// known answers, use as guide
QUERY_SMILES	TESTED_TARGET	cell viability
COc1ccc2c(c1)[C@]1(C[C@H]1c1ccc3c(/C=C/c4ccc(CN5C[C@@H](C)O[C@@H](C)C5)cc4)n[nH]c3c1)C(=O)N2	MARIMO	30.9%
C[C@]12C[C@@H](O)[C@@H]3C[C@@]1(O[C@@H]1O[C@H](CO)[C@@H](O)[C@H](O)[C@H]1O)[C@@]3(COC(=O)c1ccccc1)C(=O)O2	MARIMO	96.9%

Next item in the queue.
Q: # lookup: cell viability of C[C@H](CS)C(=O)N1CCC[C@H]1C(=O)O
Ans: 103%

----------
- Tested on: OCI-AML2
- TEST_DETAILS: cell viability relative to vehicle control; higher = less cytotoxic
- CONDITION_INFO: 10 µM; SRSF2 genotype: P95H/wt
PROPERTY_LABEL: cell viability
Include the unit after the number when you answer.

// known answers, use as guide
QUERY_SMILES	cell viability
CCOP(=O)(OCC)C(=Cc1cc(C(C)(C)C)c(O)c(C(C)(C)C)c1)P(=O)(OCC)OCC	90.9%
CCc1cc(Nc2nccc(-c3c(-c4ccc(OC)c(C(=O)Nc5c(F)cccc5F)c4)nc4ccccn34)n2)c(OC)cc1N1CCC(N2CCN(S(C)(=O)=O)CC2)CC1	93.9%
O=C1C(=Cc2ccncc2)CCCC1=Cc1ccncc1	0.15%

Q: # lookup: cell viability of C[C@@H]1CC(=O)c2c(ccc3c2C(=O)c2cccc(O)c2C3=O)C1
Ans: 43.4%
